Target: HLA-DR0301 (Homo sapiens, UniProt P01903+P01911, A100K/A102G/A103R/A169T/F55Y/I96L/K41T/L162R/M171V/P40S/Q125H/Q178H/Q39Y/R42S/S66N/T106N/T262R/W38E/Y61H)
Construct: Recombinant, extracellular domains of 10 HLA-DRB1 protein monomers; purchased Tetramer Core Facility, Benaroya Research Institute
Test: Peptide-MHCII competition binding assay, DR0301
Conditions: biotinylated and non-biotinylated versions of the reference peptide; read-out: Binding affinity of reference peptide (IC50), DRB1*0301
No end group written: not given here.
Measured parameter: pIC50
Numbers only, as −log10 of the molar value.

Query: Which pIC50 value belongs to LFRKDIAAKYKE [Myo 137-148, reference compound] ?
Response: 5.52

###

Molecular target: HLA-DR0701 (Homo sapiens, UniProt P01903+P01911, A100R/A102G/A103Q/D57E/D86V/E43K/F76Y/K127E/L162R/M171V/P40G/Q125H/Q99D/R33Q/R42Y/R54Q/S133A/S66F/T210M/V115G/Y107V/Y59L/Y89S)
Experiment: Peptide-MHCII competition binding assay, DR0701
Details: competition with biotinylated reference peptide hGAD65 555-567; HLA-DRB1 50 nM, pH 5.4, 37°C 18-24 h, Eu-streptavidin fluorescence, triplicate wells; read-out: Experimental binding affinity (IC50), DR0701
pIC50: −log10 of the molar value. No end group written: not given here.
Assignment: determine reported pIC50 for the given sequences.

Worked set:
IMYSLDGKKWQTYRGNSTGT [2103-2122]: < 4.30
FGNVDSSGIKHNIGNPPIIA [2127-2146]: < 4.30

Now consider a different sequence.
Query: Which pIC50 value belongs to KWQTYRGNSTGTLMVFFGNV [2111-2130] ?
Response: 5.23

###

Assignment: determine reported IC50 for the given sequences.
Target: HLA-DR1101 (Homo sapiens, UniProt P01903+P01911, A100R/A169T/A87E/I96F/K41T/L162R/M171V/P40S/Q125H/Q178H/Q39Y/Q99D/R42S/S66Y/T262R/V115G/W38E)
Construct: Recombinant, extracellular domains of 10 HLA-DRB1 protein monomers; purchased Tetramer Core Facility, Benaroya Research Institute
Experiment: Peptide-MHCII competition binding assay, DR1101
Conditions: read-out: Experimental binding affinity (IC50), DR1101
No end group written: not given here.
Answers are plain numbers, in µM.

IMYSLDGKKWQTYRGNSTGT [2103-2122]: 50.6

Now consider a different sequence.
Query: Which IC50 value belongs to KWQTYRGNSTGTLMVFFGNV [2111-2130] ?
Response: 68.8

###

Target: HLA-DR0404 (Homo sapiens, UniProt P01903+P01911, A100R/A169T/F76Y/I96L/K127E/L162R/M171V/N62H/P40V/Q125Y/R42H/S133A/S149N/S66Y/V209L/W38E)
Assay: Peptide-MHCII competition binding assay, DR0404
Conditions: competition with biotinylated reference peptide hGAD65 555-567; HLA-DRB1 50 nM, pH 5.4, 37°C 18-24 h, Eu-streptavidin fluorescence, triplicate wells; read-out: Experimental binding affinity (IC50), DR0404
No end group written: not given here.
Measured parameter: IC50

Worked set:
FGNVDSSGIKHNIGNPPIIA [2127-2146]: 43.8 µM
STGTLMVFFGNVDSSGIKHN [2119-2138]: 0.9 µM

Now consider a different sequence.
Query: Which IC50 value belongs to IMYSLDGKKWQTYRGNSTGT [2103-2122] ?
Response: > 50 µM
